Tested on: HuH-7 hepatocellular carcinoma cells
method: CellTiter Glo (CTG) Assay
testConditions: Homo sapiens, Huh-7, 72 h, read-out: HUH7 proliferation (nM) CTG
Structures can show the parent of a compound that is named as a salt.
testReadout: IC50 (nM)
Numbers only here, please. The scale is nM.

- compound: "COCCNc1cc(NC(=O)N2CCCc3cc(CN4CCNCC4=O)c(C=O)nc32)ncc1C#N [Example 110, hydrochloride]"
  systemUnderTest: "HuH-7 hepatocellular carcinoma cells"
  unitText: "nM"
  IC50: 59.7

# value of IC50, HuH-7 hepatocellular carcinoma cells, item COCCNc1cc(NC(=O)N2CCCc3cc(N4CCC(C)C4=O)c(C=O)nc32)ncc1C#N (racemic) = 2540

HuH-7 hepatocellular carcinoma cells assay, compound "COCCNc1cc(NC(=O)N2CCCc3cc(CN4CCN(C)C(C)(C)C4=O)c(C=O)nc32)ncc1C#N" , recorded IC50 = 103

The reported HuH-7 hepatocellular carcinoma cells IC50 of "CN1CCN(Cc2cc3c(nc2C=O)N(C(=O)Nc2cc(NCCO)c(C#N)cn2)CCC3)C(=O)C1" is 146
